Test: Single ascending dose IV study in healthy adult subjects (safety, PK)
Type: in vivo, human
Conditions: human, plasma, iv, 50 mg, 50 mg 1-hour IV infusion; read-out: t1/2 (converted)
Method: In a first study, CD101 was administered by IV injection to healthy adult subjects. […] Dose levels of CD101 assessed follow an ascending single-dose regimen (50, 100, 200, or 400 mg). Pharmacokinetics were first determined by analyzing plasma and urine samples for concentration of CD101 obtained from subjects who received CD101 in each cohort at various time points after administration of the single dose of the study drug.
*1 amine or outer side, *2 acyl side, *3 side chain or, on linkers, in order; H or OH if unused. Where a SMILES comes first, the peptide text is derived from it. Bridges are numbered along the chain shown (N, C = ends). [ ]: non-standard residue; d: D form. The star is where a group is joined. Orn(4R-OH,5R-OCH2CH2NMe3+) = C[N+](C)(C)CCO[C@@H](N[*:3])[C@H](O)C[C@H](N[*:1])C(=O)[*:2]; pTerphenylCO(4''-OnC5H11) = CCCCCOc1ccc(-c2ccc(-c3ccc(C(=O)*)cc3)cc2)cc1; hTyr(3S-OH,4S-OH) = N[C@H](C(=O)O)[C@H](O)[C@@H](O)c1ccc(O)cc1; Pro(3S-OH,4S-Me) = C[C@H]1CN[C@H](C(=O)O)[C@H]1O; Hyp = O=C(O)[C@@H]1C[C@@H](O)CN1
reportedMetric: half-life (h)
Give bare numbers, in h.

query: Value lookup for half-life; key = CCCCCOc1ccc(-c2ccc(-c3ccc(C(=O)N[C@H]4C[C@@H](O)[C@@H](OCC[N+](C)(C)C)NC(=O)[C@@H]5[C@@H](O)[C@@H](C)CN5C(=O)[C@H]([C@@H](C)O)NC(=O)[C@H]([C@H](O)[C@@H](O)c5ccc(O)cc5)NC(=O)[C@@H]5C[C@@H](O)CN5C(=O)[C@H]([C@@H](C)O)NC4=O)cc3)cc2)cc1 [CD101] ({pTerphenylCO(4''-OnC5H11)}-[Orn(4R-OH,5R-OCH2CH2NMe3+)]T[Hyp][hTyr(3S-OH,4S-OH)]T[Pro(3S-OH,4S-Me)]; lactam 1-C)
result: 86

###

Assay: Single ascending dose IV study in healthy adult subjects (safety, PK)
Type: in vivo, human
Conditions: human, plasma, iv, 100 mg, 100 mg 1-hour IV infusion; read-out: t1/2 (converted)
*1 amine or outer side, *2 acyl side, *3 side chain or, on linkers, in order; H or OH if unused. Where a SMILES comes first, the peptide text is derived from it. Bridges are numbered along the chain shown (N, C = ends). [ ]: non-standard residue; d: D form. The star is where a group is joined. Orn(4R-OH,5R-OCH2CH2NMe3+) = C[N+](C)(C)CCO[C@@H](N[*:3])[C@H](O)C[C@H](N[*:1])C(=O)[*:2]; pTerphenylCO(4''-OnC5H11) = CCCCCOc1ccc(-c2ccc(-c3ccc(C(=O)*)cc3)cc2)cc1; hTyr(3S-OH,4S-OH) = N[C@H](C(=O)O)[C@H](O)[C@@H](O)c1ccc(O)cc1; Pro(3S-OH,4S-Me) = C[C@H]1CN[C@H](C(=O)O)[C@H]1O; Hyp = O=C(O)[C@@H]1C[C@@H](O)CN1
reportedMetric: half-life (h)
Answers are plain numbers, in h.

query: Value lookup for half-life; key = CCCCCOc1ccc(-c2ccc(-c3ccc(C(=O)N[C@H]4C[C@@H](O)[C@@H](OCC[N+](C)(C)C)NC(=O)[C@@H]5[C@@H](O)[C@@H](C)CN5C(=O)[C@H]([C@@H](C)O)NC(=O)[C@H]([C@H](O)[C@@H](O)c5ccc(O)cc5)NC(=O)[C@@H]5C[C@@H](O)CN5C(=O)[C@H]([C@@H](C)O)NC4=O)cc3)cc2)cc1 [CD101] ({pTerphenylCO(4''-OnC5H11)}-[Orn(4R-OH,5R-OCH2CH2NMe3+)]T[Hyp][hTyr(3S-OH,4S-OH)]T[Pro(3S-OH,4S-Me)]; lactam 1-C)
result: 92
